Each recorded value in this set is attributed to paper PMC5540273.

System: EPHA8
details: concentration: 1 μM, replicates: in singlicate; n = 1;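 further: KINOMEscan kinase panel screen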
Each entry belongs to exactly one class, chosen by where its %Inh falls: low interval: < 1%; middle interval: ≥ 1% and < 10%; high interval: ≥ 10%

*Q* For the record Cc1cccc2c(-c3ccncn3)c(-c3ccc(F)cc3)nn12 , report the class its %Inh corresponds to.
*A* high interval

*Q* Hey, which category is CNc1cc(-c2ccc3c(N)n[nH]c3c2)nc(N)n1 in, do you know?
*A* low interval

*Q* Exam item: assign CNCc1ccc2nc(NC(=O)c3ccc(C(C)(C)C)cc3)cn2c1 to the correct category.
*A* low interval

*Q* Category of Fc1ccc(-c2nc[nH]c2-c2ccncc2)cc1 :
*A* middle interval

*Q* Class (by measured %Inh) for Nc1cccc(-c2ccc3c(N)n[nH]c3c2)n1
*A* middle interval

*Q* Which bin, given its %Inh, does CCc1ccc(-c2ccc3c(c2)-c2n[nH]cc2S(=O)(=O)N3C)cc1 occupy?
*A* low interval

*Q* Which class is correct for the following molecule? COc1ccc(Nc2nccc(N3CCC(NC(=O)C(C)c4ccc(Cl)cc4)C3)n2)cc1 (stereo not shown)
*A* high interval

*Q* # bin lookup: classify Cc1ccc(NC(=O)Nc2ccc(Cl)cc2)cc1-c1ccc(C(=O)Nc2ccncc2)cc1 by its %Inh
*A* high interval

*Q* Which class holds CCn1c(-c2ccccc2)nc2cnccc21 ?
*A* middle interval

*Q* State the class of the molecule shown: Cn1cncc1-c1cc2c(Nc3ccc(OCc4ccccc4)cc3)ncnc2cn1
*A* high interval

*Q* Classify this molecule: O=C(Nc1n[nH]c2nc(-c3ccco3)c(Br)cc12)C1CCN(Cc2ccccc2)C1.O=C(O)[C@H](O)[C@@H](O)C(=O)O (stereo not shown)
*A* low interval

*Q* For the record COc1ccc(CSc2nnc(-c3ccc4c(c3)CCO4)o2)cc1 , report the class its %Inh corresponds to.
*A* low interval

*Q* Which category does the recorded %Inh put COc1ccc2cc(-c3nc(-c4ccccc4C(C)C)[nH]c3-c3ccncc3)ccc2c1 in?
*A* high interval

*Q* Sort c1ccc(-c2ccnc3[nH]ccc23)cc1 into one of the categories.
*A* high interval

----------
Test system: MARK3
details: concentration: 1 μM, replicates: in singlicate; n = 1
Can you tell me %Inh for the items I'm about to list?
Please give a number only; it is taken to be in %.

*Q* Quick one: %Inh for Cc1ccc(-c2nc(Nc3ccncc3)c3ccccc3n2)s1 [GSK189015] ?
*A* 22

*Q* Value lookup for %Inh; key = O=c1cc(N2CCOCC2)nc2n(Cc3ccccc3F)ccn12 [GSK2297428]
*A* 0

*Q* Look at this molecule and give its reported %Inh. COc1ccc(CSc2nnc(-c3ccc4ncsc4c3)o2)cc1C(F)(F)F
*A* 0

*Q* # query: %Inh of entry O=C1NC(=O)C(c2ccc(Cl)cc2)=C1Nc1ccc(O)cc1 [SB-340867]
*A* 20

*Q* May I ask what %Inh has been recorded for Cc1ccccc1-c1cc(-c2c[nH]nc2-c2ccccn2)ccn1 [GW680061] ?
*A* 0

*Q* Quick one: %Inh for Fc1ccc(-c2nn3cccc(F)c3c2-c2ccncc2)cc1 [GW475620] ?
*A* 0

*Q* Reported %Inh for COc1ccc(Nc2nccc(N3CCC(NC(=O)C(C)c4ccc(Cl)cc4)CC3)n2)cc1 (stereo not drawn) [GSK1379812] : what is it?
*A* 0

*Q* Consider the molecule CNCc1ccc2nc(NC(=O)c3ccc(C(C)(C)C)cc3)cn2c1 and give its measured %Inh.
*A* 9

*Q* Entry CC[C@@H]1CO[C@H](C(=O)Nc2ccccc2)CN1c1cc(-c2ccc3c(N)n[nH]c3c2)nc(NC)n1 [GSK2376236] has what %Inh?
*A* 0

*Q* Given Cn1cnc2c(N)ncnc21 [SKF-97623] , state its recorded %Inh.
*A* 0

*Q* For the molecule shown here, COc1nccc(-c2c(-c3ccc(F)cc3)ncn2CCCN2CCOCC2)n1 [SB-282852] , give the reported %Inh.
*A* 24

*Q* What value of measured %Inh is listed for Fc1ccc(-c2nc3n(c2-c2ccncc2)CCS3)cc1 [GI98581] ?
*A* 0

*Q* Quick one: %Inh for COc1cccc(CNC(=O)NC2CCN(c3ccnc(Nc4ccc(F)cc4)n3)C2)c1 (stereo not drawn) [GSK1379723] ?
*A* 0

*Q* Please report the recorded %Inh for COc1ccc(CSc2nnc(-c3ccc4c(c3)CCO4)o2)cc1 .
*A* 0

*Q* May I ask what %Inh has been recorded for O=C(Nc1n[nH]c2nc(-c3cccs3)c(Br)cc12)C1CC1 [SB-735297] ?
*A* 20

----------
Tested on: BRK
Construct: gene PTK6
details: concentration: 1 μM, replicates: in singlicate; n = 1
measure: %Inh (%)
Dear colleague, please return just the value in %, with no unit written.

*Q* Which %Inh reading was recorded for the molecule O=c1cc(N2CCOCC2)nc2n(Cc3cccc(Cl)c3Cl)c3ccccc3n12 [GSK2299009] ?
*A* 17

*Q* Entry CCn1c(-c2ccccc2)nc2cnccc21 [SB-733416] has what %Inh?
*A* 27

*Q* Quick one: %Inh of Cc1nccc(-c2c(-c3ccc(F)cc3)ncn2CCCN2CCOCC2)n1.Cl [SB-282975] ?
*A* 13

*Q* What value of measured %Inh is listed for COc1cccc(NC(=O)Nc2ccc(C)c(-c3ccc(C(=O)Nc4ccncc4)cc3)c2)c1 [GSK1398474] ?
*A* 0

*Q* Name the reported %Inh value associated with the molecule COc1ccc(-c2coc3ccc(-c4nnc(C)o4)cc23)cc1
*A* 0

*Q* So what's the measured %Inh for this one? Cc1c(Cn2c(C)c(C)n3c(=O)cc(N4CCOCC4)nc23)cccc1C(F)(F)F [GSK2328680]
*A* 6

----------
Test system: AKT1
details: concentration: 1 μM, replicates: in singlicate; n = 1
measure: %Inh (%)
Just the number please, in %, no unit attached.

*Q* Give the measured %Inh of COC(=O)c1cccc(NC(=O)NC2CCN(c3ccnc(Nc4ccc(F)cc4)n3)C2)c1 (stereo not drawn) .
*A* 0

*Q* Any idea what %Inh was measured for CSc1ccc(-c2nc3n(c2-c2ccncc2)CCC3)cc1 ?
*A* 6

*Q* Query: %Inh; subject: CNCc1ccc2nc(NC(=O)c3ccc(C(C)(C)C)cc3)cn2c1
*A* 5

*Q* # input molecule: COC(=O)C(NC(=O)NC1CCN(c2ccnc(Nc3ccc(F)cc3)n2)C1)c1ccccc1 (stereo not drawn) ; wanted: its %Inh
*A* 0

*Q* Look at this molecule and give its reported %Inh. Cc1c(Cn2c3ccccc3n3c(=O)cc(N4CCOCC4)nc23)cccc1C(F)(F)F
*A* 0

*Q* I am curious: what %Inh value has been reported for Cc1cnc(N)c(/C=C/c2cncc(C(=O)NCCc3ccc(Cl)cc3Cl)c2)c1.Cl ?
*A* 0

----------
Test system: PKMYT1
details: concentration: 1 μM, replicates: in singlicate; n = 1
I'd be grateful if you could share measured %Inh for these entries.
Use % as the unit, but write only the number.

*Q* Look up %Inh for this compound: Fc1ccc(-c2nc[nH]c2-c2ccncc2)cc1 [SB-217360]
*A* 9

*Q* Return reported %Inh; argument: COc1cc2ncnc(Nc3cccc(Br)c3)c2cc1OC.Cl [GI230329]
*A* 0

*Q* Which %Inh value belongs to Fc1ccc(-c2nc3n(c2-c2ccncc2)CCS3)cc1 [GI98581] ?
*A* 10

----------
Consider the following compounds; for each one, report its %Inh.
System: PCTK1
Construct: gene CDK16
details: concentration: 1 μM, replicates: in singlicate; n = 1
Give just the numeric value; % need not be written.

*Q* Please report the recorded %Inh for FC(F)(F)c1ccccc1-c1cc(-c2c[nH]nc2-c2ccccn2)ccn1 [GW679396] .
*A* 0

*Q* # %Inh lookup, item COc1ccc(CSc2nnc(-c3ccc4nccn4c3)o2)cc1C(F)(F)F
*A* 13

*Q* Need %Inh, item Nc1ncnc2occ(-c3ccc4c(c3)CCN4C(=O)Cc3cc(F)ccc3F)c12 [GSK2645446]
*A* 2

*Q* Report %Inh for O=C(Nc1n[nH]c2cc(-c3ccsc3)ccc12)C1CC1 [SB-732932] please.
*A* 13

*Q* Name the recorded %Inh for COc1ccc(CSc2nnc(-c3ccc4c(c3)CCO4)o2)cc1 .
*A* 0

*Q* Consider the compound shown here: COc1cccc(C2=C(Nc3cc(Cl)c(O)c(Cl)c3)C(=O)NC2=O)c1 [SB-390767] What is its recorded %Inh?
*A* 2

*Q* # input compound: COc1ccc(-c2coc3ccc(-c4nnc(C)o4)cc23)cc1 ; wanted: its %Inh
*A* 56

*Q* Given Cc1ccccc1-c1cc(-c2c[nH]nc2-c2ccccn2)ccn1 [GW680061] , state its recorded %Inh.
*A* 2

*Q* Any idea what its %Inh is? The compound is Fc1ccc(-c2nn3cccc(F)c3c2-c2ccncc2)cc1 [GW475620]
*A* 6
